# measurement-target: T1, human C5a (source not stated) (human, UniProt P01031 678-751)
# T1 sequence: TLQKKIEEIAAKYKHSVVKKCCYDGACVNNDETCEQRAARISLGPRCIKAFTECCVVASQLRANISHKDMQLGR
# method-description: cell-based or functional assay
property-name: ROS IC50 (nM)
All answers are understood in nM, so give the number only.

For the binder Cab43 (reformatted as human IgG1) (antibody, V domains shown) VH: EVQLVESGGGLVQPGGSLRLSCAASGFTFSNYYIQWVRQAPGKGPEWVGLIRNKAIGETTEFAASVKGRFTISRDDSKNSVYLQMNSLKTEDTAVYYCAGRLGPPGLTWGQGVLVTVSS VL: DIVMTQSPLSLPVTPGEPASISCRSSQNLLATDGYTYLDWYLQKPGQSPQLLIYGGSKRASGVPDRFSGSGSGTDFTLKISRVEAEDVGVYYCLQHRALPPTFGQGTKLEIK , give its reported ROS IC50. 0.62

Quote ROS IC50 reported for Cab05 scFv (scFv, V domains shown, scFv) VH: EMQLVESGGGLVQPGGSLRLSCAASGFTFSDYYMQWVRQAPGKGPEWVGLIRNKAVGGTTQYAASVKGRFTISRDDSKNSVYLQMNSLKTEDTAVYYCVSRAGPPGLSWGQGVLVTVSS VL: DIVMTQSPLSLPVTPGEPASISCRSSQSLLASDGYNYIDWYLQKPGQSPQLLIYGGSNRASGVPDRFSGSGSGTDFTLKISRVEAEDVGVYFCLQHRALPPTFGQGTKLEIK please. 1.56

Give the value of ROS IC50 reported for the following: Cab44-IgG1 (antibody, V domains shown, Full-length human IgG1) VH: EVQLVESGGGLVQPGGSLRLSCAASGFTFSNYYIQWVRQAPGKGPEWVGLIRNKAIGETTEFAASVKGRFTISRDDSKNSVYLQMNSLKTEDTAVYYCAGRLGPPGLTWGQGVLVTVSS VL: DIVMTQSPLSLPVTPGEPASISCRSSQSLLATDGYEYLDWYLQKPGQSPQLLIYGASNRASGVPDRFSGSGSGTDFTLKISRVEAEDVGVYYCLQHKALPPTFGQGTKLEIK 0.51

Hello, the source for this data is patent US20230257454A1, in case you need it.
